# Tested on: Escherichia coli TOP10;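 note: peptides expressed intracellularly from a pBAD plasmid library in pooled LB shake-flask culture, induced with 0.3% L-arabinose, DNA abundance read by NGS, three biological replicates, DESeq2 with apeglm shrinkage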
# Assay Protocol: shrunken log2 fold change of peptide-encoding DNA abundance (4.5 h post-induction vs induction); higher = less antimicrobial activity (less host growth inhibition)
# Measurement Setup: time post-induction: 4.5 h; library: site-saturation at positions 5, 18, 19, 20
Exercise: state measured shrunken log2 fold change for each of the sequences provided.
Numbers only.

The cases that follow already have their shrunken log2 fold change on record.
1. RRIRQRPPRLPRPRPRPNEWPRP -0.00822
2. RRIRYRPPRLPRPRPRPMISPRP -0.126
3. RRIRSRPPRLPRPRPRPENMPRP -0.459
4. RRIRVRPPRLPRPRPRPFPDPRP -0.345

Kindly review the next sequence as well.
query: Which shrunken log2 fold change is reported with Escherichia coli TOP10 for this entry: RRIRGRPPRLPRPRPRPMDYPRP ?
result: 0.0324
